measuredProperty: melting point

Previously resolved entries follow.
Please give measured melting point of the following entry: CCOC(=O)C1CC2CC(=O)CCC2CN1C(=O)OC (stereo unspecified)
79 to 80 °C

Specify measured melting point for CCCCCCc1nc(C(C)=O)c[nH]1 .
104 to 106 °C

***
Identify measured melting point corresponding to CCCCn1cc(S(C)=O)c(=O)c2sccc21 (stereo unspecified)
137 to 138 °C

For COc1ccc(-c2cnc(N)c(Cc3ccccc3)n2)cc1 , write its melting point.
150 to 153 °C

Determine its reported melting point: Cc1c(Cl)cccc1S(=O)(=O)Nc1ccc2occ(C)c2c1
120 °C

Look up and state reported melting point for Cc1ccccc1-c1cccc2c1CCn1cc(-c3ccccc3)nc1C2OC1CCN(C)CC1 (stereo unspecified)
94 °C

###

measuredProperty: melting point (°C)
Answer in °C, number only, no unit symbol.

Provide measured melting point value, entry: OC12CCCCOC1C(OCc1ccccc1)C(OCc1ccccc1)C(OCc1ccccc1)C2OCc1ccccc1 (stereo not given)
106

New cases:
Note melting point for the molecule shown: CC(C)(O)CCCCC(C)(C)O
87

###

Known melting point of a selection of compounds
Write the value in °C as a bare number.

Assign melting point to the following record: COc1ccc2c(C(=O)Nc3ccc(F)c(C(F)(F)F)c3)nsc2c1
157

We next turn to a different compound, shown below.
Give the reported melting point for this compound. Cc1nc(CCc2ccccc2)c2c(c1O)COC2
248

###

Listed compounds paired with reported melting point

Below, each entry is followed by its recorded melting point result.
Please indicate melting point recorded for CC(Cl)c1nc2c(C(F)(F)F)cccc2c(O)c1C(=O)Nc1nccs1 (stereo unspecified)
190 to 192 °C

Please report melting point for the following compound: O=C1O[C@@H](CO)CN1c1ccc(I)c(F)c1
116 to 117 °C

Supply measured melting point of CS(=O)(=O)c1ccc(-c2nn(Cc3ccc(Cl)cc3Cl)c(=O)cc2-c2ccc(Cl)cc2)cc1 in your reply.
233 to 234 °C

Assign melting point to the following record: NC1CN(c2c(F)cc3c(=O)c(C(=O)O)cn(C4CC4)c3c2F)C1
214 to 216 °C

---
Give a short answer stating reported melting point for CCOC(=O)c1cn(-c2cc([N+](=O)[O-])c(F)cc2F)c2cc(F)c(F)cc2c1=O .
165 to 173 °C

State, in one line, measured melting point of CC(=O)OC(CN(Cc1ccccc1)Cc1ccccc1)c1ccc2c(c1)CCN2C(C)=O (stereo unspecified)
91 to 92 °C

Using known records, supply melting point for O=C(O)c1ccc2c(=O)c3ccccc3ccc2c1
261 to 262 °C

Provide measured melting point value, entry: Cc1cc(C)c(C)c(-c2cc3cnc(N)nc3nc2N)c1C
327 to 331 °C

Report melting point, nothing else, for this compound: COc1cc2ccc3c(OC)cccc3c2c(OC)c1OC
80 to 82 °C

###

melting point by entry:

Give reported melting point value for CCOC(=O)c1ccc(CBr)c(F)c1
42.5 to 44 °C

Provide only the value of recorded melting point for COc1ccccc1Sc1ccc2c(c1)CC[C@H]1NC(=O)CC[C@]21C
176 to 179 °C

Note down melting point recorded for COC(=O)c1ccc(NC(=O)CBr)cc1
144 to 146 °C

Continuing:
Give recorded melting point. C[C@H](C#Cc1sccc1Cc1ccc(F)cc1)N(O)C(N)=O
99 to 100 °C
